- tested.on: hCB1R (Homo sapiens)
- experiment.description: In vitro functional assay (FLIPR, intracellular Ca2+) with recombinant HEK293 cells, CB1
- Format: cell-based
- Set-up: expressed in transfected cells; host or cells: HEK293
Assign IC50 to each entry below.
Answers are plain numbers, in nM.

structure=COC(=O)Cc1ccc(Nc2ccccc2CN2C(=O)N(c3ccc(C#N)c(C(F)(F)F)c3)C(=O)C2(C)C)cc1 measured_parameter=IC50 endpoint_result=52
structure=CC1(C)C(=O)N(c2ccc(C#N)c(C(F)(F)F)c2)C(=O)N1Cc1cccc(Cl)c1Nc1ccc(F)cc1F measured_parameter=IC50 endpoint_result=12
structure=COc1ccc(Nc2ccccc2CN2C(=O)N(c3ccc(C#N)c(C(F)(F)F)c3)C(=O)C2(C)C)cn1 measured_parameter=IC50 endpoint_result=9
structure=CC1(C)C(=O)N(c2ccc(C#N)c(C(F)(F)F)c2)C(=O)N1Cc1c(Cl)cc(Cl)cc1Nc1ccc(F)cc1F measured_parameter=IC50 endpoint_result=11
structure=CC1(C)C(=O)N(c2ccc(C#N)c(C(F)(F)F)c2)C(=O)N1Cc1ccccc1Nc1ccc(F)cc1F measured_parameter=IC50 endpoint_result=0.7

Hi, could you look up IC50 for each item in my list?
1. COc1ccc(Nc2ccccc2CN2C(=O)N(c3ccc(C#N)c(C(F)(F)F)c3)C(=O)C2(C)C)cc1OC
2. CC(C)(C)c1cc(N2C(=O)N(Cc3ccccc3Nc3ccc(F)cc3F)C(C)(C)C2=O)ccc1C#N
3. COC(=O)c1ccc(Nc2ccccc2CN2C(=O)N(c3ccc(C#N)c(C(F)(F)F)c3)C(=O)C2(C)C)cn1
4. CC1(C)C(=O)N(c2ccc(C#N)c(C(F)(F)F)c2)C(=O)N1Cc1ccccc1Nc1ccc(F)cc1
5. CC1(C)C(=O)N(c2ccc(C#N)c(C(F)(F)F)c2)C(=O)N1Cc1ccccc1Nc1ccc(C(F)(F)F)cc1
6. CCOC(=O)COc1ccc(Nc2ccccc2CN2C(=O)N(c3ccc(C#N)c(C(F)(F)F)c3)C(=O)C2(C)C)cc1
7. CC1(C)C(=O)N(c2ccc(C#N)c(C(F)(F)F)c2)C(=O)N1Cc1ccccc1Nc1ccc(CC#N)cc1

Ans:
[49, 16, 39, 11, 44, 4, 4]

Hi, could you look up IC50 for each item in my list?
1. CC1(C)C(=O)N(c2ccc(C#N)c(C(F)(F)F)c2)C(=O)N1Cc1ccccc1Nc1ccc(C(N)=O)cc1
2. COc1ccc(Nc2ccccc2CN2C(=O)N(c3ccc(C#N)c(C(F)(F)F)c3)C(=O)C2(C)C)c(F)c1

Ans:
1. 5
2. 4

---

Assign pKi to each entry below.
- tested.on: hCB1R (Homo sapiens, UniProt P21554)
- Sequence (P21554 whole entry): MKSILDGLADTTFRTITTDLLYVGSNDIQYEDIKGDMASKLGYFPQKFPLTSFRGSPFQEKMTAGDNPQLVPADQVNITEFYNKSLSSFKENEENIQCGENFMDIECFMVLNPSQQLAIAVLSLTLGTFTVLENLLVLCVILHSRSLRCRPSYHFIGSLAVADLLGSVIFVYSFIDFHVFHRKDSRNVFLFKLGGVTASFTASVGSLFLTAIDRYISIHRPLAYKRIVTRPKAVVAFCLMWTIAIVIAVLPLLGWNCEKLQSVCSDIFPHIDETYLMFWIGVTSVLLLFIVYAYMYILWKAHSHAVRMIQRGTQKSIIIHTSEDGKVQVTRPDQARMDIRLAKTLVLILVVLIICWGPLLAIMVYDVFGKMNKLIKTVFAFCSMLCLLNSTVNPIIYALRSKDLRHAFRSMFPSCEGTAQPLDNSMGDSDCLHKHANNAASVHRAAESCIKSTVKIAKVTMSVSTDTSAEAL
- experiment.description: Binding to the CB1 receptor ([3H]-SR141716A displacement)
One number for each entry, as −log10 of the molar value.

# example entries with known answers
compound="CC1(C)C(=O)N(c2ccc(C#N)c(C(F)(F)F)c2)C(=O)N1Cc1ccccc1Nc1ccc(C=O)cc1 [Example 120]" endpoint_result=8.30
compound="CC1(C)C(=O)N(c2ccc(F)c(C(F)(F)F)c2)C(=O)N1Cc1ccccc1Nc1ccc(F)cc1F [Example 52]" endpoint_result=8.52
compound="CC1(C)C(=O)N(c2ccc(C#N)c(C(F)(F)F)c2)C(=O)N1Cc1ccccc1Nc1ccc(C(F)(F)F)cc1 [Example 5]" endpoint_result=8.15

Turning to the following compound.
Q: Look up pKi: CC1(C)C(=O)N(c2ccc(C#N)c(C(F)(F)F)c2)C(=O)N1Cc1ccccc1Nc1ccccc1 [Example 1]
Ans: 7.89

---

Assign log10(IC50) to each entry below.
- tested.on: UniProt:P21554
- experiment.description: In vitro functional assay (FLIPR, intracellular Ca2+) with recombinant HEK293 cells, CB1
- Format: cell-based
- Set-up: expressed in transfected cells; host or cells: HEK293
- run.parameters: recombinant HEK293 cells expressing CB1 and Galpha16; 20 min preincubation, then reference agonist; Ca2+ change; read-out: hCB1R: FLIPR; IC50
Recall that a logarithmic scale is used here: each number is log10 of IC50 in nM.

compound="CC1(C)C(=O)N(c2ccc(C#N)c(C(F)(F)F)c2)C(=O)N1Cc1ccccc1Nc1ccc(C(C(=O)O)C(=O)O)cc1 [Example 238]" endpoint_result=1.00
compound="COc1ncc(Nc2ccccc2CN2C(=O)N(c3ccc(C#N)c(C(F)(F)F)c3)C(=O)C2(C)C)cn1 [Example 180]" endpoint_result=0.00
compound="CC1(C)C(=O)N(c2ccc(C#N)c(C(F)(F)F)c2)C(=O)N1Cc1ccccc1Nc1ccc(NS(C)(=O)=O)cc1 [Example 175]" endpoint_result=0.95
compound="CC1(C)C(=O)N(c2ccc(C#N)c(-c3ccccc3)c2)C(=O)N1Cc1ccc(F)cc1Nc1ccc(C(=O)O)cc1 [Example 227]" endpoint_result=1.20
compound="CC1(C)C(=O)N(c2ccc(C#N)c(C(F)(F)F)c2)C(=O)N1Cc1ccccc1Nc1ccc(C(=O)O)cc1F [Example 80]" endpoint_result=1.52
compound="CC1(C)C(=O)N(c2ccc(F)c(C(F)(F)F)c2)C(=O)N1Cc1ccc(F)cc1Nc1ccc2c(c1)C(=O)CCC2 [Example 204]" endpoint_result=1.66

Hi, could you look up log10(IC50) for each item in my list?
1. CC1(C)C(=O)N(c2ccc(C#N)c(C(F)(F)F)c2)C(=O)N1Cc1c(Cl)cc(Cl)cc1Nc1ccc(Cl)cc1 [Example 37]
2. CC1(C)C(=O)N(c2ccc(C#N)c(C(F)(F)F)c2)C(=O)N1Cc1cc(Cl)cc(Cl)c1Nc1ccc(F)cc1F [Example 39]
3. CC1(C)C(=O)N(c2ccnc(C(F)(F)F)c2)C(=O)N1Cc1ccccc1Nc1ccccc1 [Example 65]
4. COC(=O)C1=C[C@@H](OC(C)=O)[C@H](OC(C)=O)[C@@H](Oc2ccc(Nc3ccccc3CN3C(=O)N(c4ccc(C#N)c(C(F)(F)F)c4)C(=O)C3(C)C)cc2)O1 [Example 197]

Ans:
1: 1.32; 2: 1.84; 3: 2.16; 4: 1.28

Hi, could you look up log10(IC50) for each item in my list?
1. CC1(C)C(=O)N(c2ccc(C#N)c(C(F)(F)F)c2)C(=O)N1Cc1c(Cl)cc(Cl)cc1Nc1ccc(F)cc1 [Example 35]
2. CC(=O)Nc1ccc(Nc2ccccc2CN2C(=O)N(c3ccc(C#N)c(C(F)(F)F)c3)C(=O)C2(C)C)cc1 [Example 148]
3. COC(=O)c1ccc(Nc2cc(C(F)(F)F)ccc2CN2C(=O)N(c3ccc(C#N)c(C(F)(F)F)c3)C(=O)C2(C)C)cc1 [Example 106]
4. CC1(C)C(=O)N(c2ccc(C#N)c(C(F)(F)F)c2)C(=O)N1Cc1ccccc1Nc1ccc(C#N)cc1 [Example 33]

Ans:
1. 1.18
2. 1.04
3. 1.08
4. 0.60

---

- tested.on: hCB1R (Homo sapiens)
- experiment.description: In vitro functional assay (FLIPR, intracellular Ca2+) with recombinant HEK293 cells, CB1
- Format: cell-based
- Design: expressed in transfected cells; host or cells: HEK293
- run.parameters: recombinant HEK293 cells expressing CB1 and Galpha16; 20 min preincubation, then reference agonist; Ca2+ change; read-out: hCB1R: FLIPR; IC50
Assign pIC50 to each entry below.
One number for each entry, as −log10 of the molar value.

structure=CC1(C)C(=O)N(c2ccc(C#N)c(C(F)(F)F)c2)C(=O)N1Cc1ccccc1Nc1cnc(O)nc1O endpoint_result=8.15
structure=CC1(C)C(=O)N(c2ccc(C#N)c(C(F)(F)F)c2)C(=O)N1Cc1ccccc1Nc1ccc2c(c1)COC2=O endpoint_result=8.30
structure=CC1(C)C(=O)N(c2ccnc(C(F)(F)F)c2)C(=O)N1Cc1ccccc1Nc1ccc(F)cc1F endpoint_result=7.60

Turning to the following compound.
Q: Look up pIC50: CC1(C)C(=O)N(c2ccc(F)c(C(F)(F)F)c2)C(=O)N1Cc1ccc(F)cc1Nc1ccc(NS(C)(=O)=O)cc1
Ans: 7.96

---

- tested.on: hCB1R (Homo sapiens)
- experiment.description: In vitro functional assay (FLIPR, intracellular Ca2+) with recombinant HEK293 cells, CB1
- Type: cell-based
- Parameters: expressed in transfected cells; host or cells: HEK293
- run.parameters: recombinant HEK293 cells expressing CB1 and Galpha16; 20 min preincubation, then reference agonist; Ca2+ change; read-out: hCB1R: FLIPR; IC50
measured.parameter: IC50 (nM)
Give bare numbers, in nM.

# example entries with known answers
structure=CC1(C)C(=O)N(c2ccc(C#N)c(C(F)(F)F)c2)C(=O)N1Cc1ccc(Nc2ccccc2)cc1 tested_on="hCB1R (Homo sapiens)" endpoint_result=208
structure=CC1(C)C(=O)N(c2ccc(F)c(C(F)(F)F)c2)C(=O)N1Cc1ccc(F)cc1Nc1ccc(S(C)(=O)=O)cc1 tested_on="hCB1R (Homo sapiens)" endpoint_result=117
structure=CC1(C)C(=O)N(c2ccc(C#N)c(C(F)(F)F)c2)C(=O)N1Cc1cc(Cl)ccc1Nc1ccc(F)cc1 tested_on="hCB1R (Homo sapiens)" endpoint_result=28
structure=CC1(C)C(=O)N(c2ccc(C#N)c(-c3ccc(Cl)cc3)c2)C(=O)N1Cc1ccc(F)cc1Nc1ccc(C(=O)O)cc1 tested_on="hCB1R (Homo sapiens)" endpoint_result=61
structure=CC1(C)C(=O)N(c2ccc(C#N)c(C(F)(F)F)c2)C(=O)N1Cc1c(Cl)cc(Cl)cc1Nc1ccc(C(=O)O)cc1 tested_on="hCB1R (Homo sapiens)" endpoint_result=49
structure=CC1(C)C(=O)N(c2ccc(C#N)c(C(F)(F)F)c2)C(=O)N1Cc1ccccc1Nc1ccc(S(N)(=O)=O)cc1 tested_on="hCB1R (Homo sapiens)" endpoint_result=44

Turning to the following compound.
Q: Look up IC50: CC1(C)C(=O)N(c2ccc(C#N)c(C(F)(F)F)c2)C(=O)N1Cc1cccc(Cl)c1Nc1ccc(Cl)cc1
Ans: 77
